Test system: U251 CNS
Assay: NCI tumour cell line growth inhibition, 48 h
Entries annotated with measured TGI
readout-label: TGI

- molecule: "CC1CCCc2c(CC3CC(=O)NC(=O)C3)nc(N)nc21 (stereo unspecified)"
  endpoint-result: "> 100 µM"
- molecule: "CC(C)c1cc(C(C)C)c(B(c2ccccc2)c2ccccc2)c(C(C)C)c1Br"
  endpoint-result: "> 100 µM"
- molecule: "Cc1nc2ccccc2nc1N1CCCC1"
  endpoint-result: "> 100 µM"
- molecule: "N#CC(N)(C(=O)C(=O)NCCCNC(=O)C(=O)C(N)(C#N)c1ccc(Cl)cc1)c1ccc(Cl)cc1 (stereo unspecified)"
  endpoint-result: "> 100 µM"
- molecule: "O=C1CCc2c(sc3ncnc(Nc4cccc(Br)c4)c23)C1"
  endpoint-result: "9.02 µM"
- molecule: "Nc1nn2cc(-c3ccccc3)[n+](CC(=O)c3ccccc3)c2s1"
  endpoint-result: "29.6 µM"

* * *

System: SK-MEL-28 melanoma
Experiment: NCI tumour cell line growth inhibition, 48 h

- compound: "CCc1cc(Nc2nccc(-c3c(-c4ccc(OC)c(C(=O)Nc5c(F)cccc5F)c4)nc4ccccn34)n2)c(OC)cc1N1CCC(N2CCN(S(C)(=O)=O)CC2)CC1"
  GI50: "> 100000 nM"
- compound: "CCN1CCN(c2nc(NNC(=O)c3cccc(OC)c3)nc(N3CCN(C(c4ccccc4)c4ccccc4)CC3)n2)CC1"
  GI50: "1800 nM"
- compound: "c1cc[c]([Sn]([O]c2cccc3cccnc23)([c]2ccccc2)[c]2ccccc2)cc1"
  GI50: "11.6 nM"
- compound: "CCN(CC)c1ccc(/C=C2/NC(=O)NC2=O)cc1"
  GI50: "15900 nM"

* * *

Test system: NCI-H23 lung
Test: NCI tumour cell line growth inhibition, 48 h; in the data active = GI50 below about 0.43 µM; inactive = the rest
*1 amine or outer side, *2 acyl side, *3 side chain or, on linkers, in order; H or OH if unused. Where a SMILES comes first, the peptide text is derived from it. [ ]: non-standard residue; d: D form. The star is where a group is joined. X12 = NCCCCC(N[*:1])C(=O)CN1CCCC1C(=O)[*:2]; Pentadecanoyl = CCCCCCCCCCCCCCC(=O)*
Labels: active, inactive

- compound: "C=C1C(=O)O[C@H]2[C@H]1CC/C(COC(=O)c1ccc(Br)cc1)=C\\CC[C@@]1(C)O[C@@H]21"
  class-name: "inactive"
- compound: "CC[C@@]1(O)C(=O)N(CCN(C)C)Cc2c1cc1n(c2=O)Cc2cc3ccccc3nc2-1"
  class-name: "inactive"
- compound: "COc1ccc(CN[C@H]2CCc3cc(OC)c(OC)c(OC)c3-c3ccc(SC)c(=O)cc32)c(OC)c1OC"
  class-name: "active"
- compound: "O=C1c2ccccc2-c2c1c1ccccc1c(=O)n2CCCNCCO"
  class-name: "inactive"
- compound: "CCCCCCCCCCCCCCC(=O)NC(CCCCN)C(=O)CN1CCCC1C(=O)NCC(=O)NC(Cc1ccccc1)C(=O)N1CCCC1C(=O)NC(CO)C(=O)NC(Cc1ccc(O)cc1)C(=O)NC(CCCCN)C(=O)NC(CC(C)C)C(=O)NC(CCCN=C(N)N)C(=O)N1CCCC1C(=O)NCC(N)=O (stereo unspecified) (Pentadecanoyl-[X12]GFPSYKLRPG-NH2; configuration not given here)"
  class-name: "inactive"
- compound: "c1cc[c]([Sn]([O]c2cccc3cccnc23)([c]2ccccc2)[c]2ccccc2)cc1"
  class-name: "active"
- compound: "CCCCCCCC(=O)O[C@H]1[C@H]2[C@@H](CC1(C)C)C(=O)[C@]13O[C@H]1C(=O)[C@]1(CO1)[C@]23C"
  class-name: "inactive"
- compound: "CCN(CC)c1ccc(/C=C2/NC(=O)NC2=O)cc1"
  class-name: "inactive"
- compound: "C[C@@H]1CC[C@H]2C(CN(C)CC3=C(C(F)(F)F)O[C@@H]4O[C@@]5(C)CC[C@H]6[C@H](C)CC[C@@H]3[C@@]46OO5)=C(C(F)(F)F)O[C@@H]3O[C@@]4(C)CC[C@@H]1[C@]32OO4"
  class-name: "inactive"
- compound: "Cc1cccc(Cc2cnc(NC(=O)/C=C/c3ccco3)s2)c1"
  class-name: "active"
- compound: "COC(=O)CCCCCCCCC(=O)c1c(C)[nH]c(/C=C2\\N=C(c3ccc[nH]3)C=C2OC)c1C"
  class-name: "inactive"
- compound: "CCC[CH2][Sn]1([CH2]CCC)[O]N=Cc2ccccc2[O]1"
  class-name: "active"
- compound: "Nc1ccc(Sc2ccc3c4c2cccc4c(=O)n2c4ccccc4nc32)cc1"
  class-name: "inactive"
- compound: "COC(=O)[C@@H](C)C[C@H](Cc1ccccc1)NC(=O)c1csc([C@@H](C[C@H](C(C)C)N(C)C(=O)[C@@H](NC(=O)CN(C)C)C2CC2)OC(C)=O)n1"
  class-name: "active"
- compound: "CCN(Cc1cccc(C)c1)c1ccc(CO)c(Cl)c1"
  class-name: "inactive"
- compound: "COc1ccc(C2C3=C(COC3=O)N(CCO)c3cc4c(cc32)CCC4)cc1OC (stereo unspecified)"
  class-name: "inactive"

* * *

Entries annotated with measured GI50
System: SF-268 CNS
Assay: NCI tumour cell line growth inhibition, 48 h
readout-label: GI50

- compound: "COC(=O)CCCCCCCCC(=O)c1c(C)[nH]c(/C=C2\\N=C(c3ccc[nH]3)C=C2OC)c1C"
  endpoint-result: "> 20.6 µM"
- compound: "CN(C)CC1CCCCCCCCCCC1=O (stereo not drawn)"
  endpoint-result: "> 100 µM"
- compound: "Nc1ccc(Sc2ccc3c4c2cccc4c(=O)n2c4ccccc4nc32)cc1"
  endpoint-result: "5.42 µM"
- compound: "COc1ccc(Nc2ccnc3cc(Cl)ccc23)cc1CN(CCCl)CCCl"
  endpoint-result: "1.15 µM"
- compound: "C[C@@H]1CC[C@H]2C(CN(C)CC3=C(C(F)(F)F)O[C@@H]4O[C@@]5(C)CC[C@H]6[C@H](C)CC[C@@H]3[C@@]46OO5)=C(C(F)(F)F)O[C@@H]3O[C@@]4(C)CC[C@@H]1[C@]32OO4"
  endpoint-result: "2.82 µM"
- compound: "O=C(CN1CCN(c2cc3c(cc2F)c(=O)c(C(=O)O)cn3C2CC2)CC1)Nc1ccc(C(=O)/C=C/c2ccccc2)cc1"
  endpoint-result: "4.13 µM"
- compound: "c1cc[c]([Sn]([O]c2cccc3cccnc23)([c]2ccccc2)[c]2ccccc2)cc1"
  endpoint-result: "0.0128 µM"
- compound: "CC[C@@]1(O)C(=O)N(CCN(C)C)Cc2c1cc1n(c2=O)Cc2cc3ccccc3nc2-1"
  endpoint-result: "3.59 µM"
- compound: "Cn1ccnc1C(=O)/C=C/c1ccc(CC(=O)Nc2cc(F)c(F)c(F)c2)cc1"
  endpoint-result: "1.78 µM"
- compound: "COc1ccc(CN[C@H]2CCc3cc(OC)c(OC)c(OC)c3-c3ccc(SC)c(=O)cc32)c(OC)c1OC"
  endpoint-result: "0.0111 µM"
- compound: "COc1cc2cc(Oc3ccc(NC(=O)Nc4cc(C(F)(F)F)cc(C(F)(F)F)c4)cc3)c(C)nc2cc1OCCN1CCCCC1"
  endpoint-result: "1.69 µM"
- compound: "Cc1cncc2cccc(S(=O)(=O)N3CCCNC[C@@H]3C)c12"
  endpoint-result: "4.91 µM"
- compound: "CCN(CC)Cc1cc(Nc2c3ccc(Cl)cc3nc3c(C)cccc23)ccc1O"
  endpoint-result: "1.53 µM"

* * *

Test system: SK-OV-3 ovarian
Experiment: NCI tumour cell line growth inhibition, 48 h
Entries annotated with measured GI50
readout-label: GI50

- compound: "CCN(CC)c1ccc(/C=C2/NC(=O)NC2=O)cc1"
  test-system: "SK-OV-3 ovarian"
  readout-label: "GI50"
  endpoint-result: "6.84 µM"
- compound: "COC(=O)[C@@H](C)C[C@H](Cc1ccccc1)NC(=O)c1csc([C@@H](C[C@H](C(C)C)N(C)C(=O)[C@@H](NC(=O)CN(C)C)C2CC2)OC(C)=O)n1"
  test-system: "SK-OV-3 ovarian"
  readout-label: "GI50"
  endpoint-result: "0.434 µM"
- compound: "CCN(Cc1cccc(C)c1)c1ccc(CO)c(Cl)c1"
  test-system: "SK-OV-3 ovarian"
  readout-label: "GI50"
  endpoint-result: "11.7 µM"
- compound: "O=C(/C=C(/C=C/c1csc2ccccc12)OB(F)F)/C=C/c1csc2ccccc12"
  test-system: "SK-OV-3 ovarian"
  readout-label: "GI50"
  endpoint-result: "> 50 µM"
- compound: "CCN1CCN(c2nc(NNC(=O)c3cccc(OC)c3)nc(N3CCN(C(c4ccccc4)c4ccccc4)CC3)n2)CC1"
  test-system: "SK-OV-3 ovarian"
  readout-label: "GI50"
  endpoint-result: "2.72 µM"
- compound: "c1ccc(-c2nn(-c3ccccc3)[n+](-c3ccccc3-c3ccccc3)n2)cc1"
  test-system: "SK-OV-3 ovarian"
  readout-label: "GI50"
  endpoint-result: "1.29 µM"
- compound: "N#CSc1cc(-c2nc3ccccc3o2)ccc1N"
  test-system: "SK-OV-3 ovarian"
  readout-label: "GI50"
  endpoint-result: "76.5 µM"
- compound: "C=C1C(=O)O[C@H]2[C@H]1CC/C(COC(=O)c1ccc(Br)cc1)=C\\CC[C@@]1(C)O[C@@H]21"
  test-system: "SK-OV-3 ovarian"
  readout-label: "GI50"
  endpoint-result: "14.8 µM"
- compound: "CCOC(=O)CCC(NC(=O)c1ccc(Nc2nc3cc(N)cc(N)c3nc2-c2ccccc2)cc1)C(=O)OCC (centres undefined)"
  test-system: "SK-OV-3 ovarian"
  readout-label: "GI50"
  endpoint-result: "22 µM"

// provenance: PubChem BioAssay (NCI)
